protocol: Antiproliferative activity against human HCT116 cells assessed as reduction in cell viability at 1 uM after 72 hrs by ATPlite assay
Format: functional
condition_parameters: HCT-116, 72 h, read-out: GI
measurement_name: inhibition of growth at 1 µM (%)
Answers are plain numbers, in %.

Example results:
INSERT INTO measurements (structure_string, measurement_name, result_number) VALUES
  ('O=C1C=C2C(C#Cc3ccccc3C(F)(F)F)=C[C@@H]3C[C@@]2(O1)[C@H]1CCCCN31', 'inhibition of growth at 1 µM', 55.8),
  ('CN(C)c1ccc(C#CC2=C[C@@H]3C[C@@]4(OC(=O)C=C24)[C@H]2CCCCN32)cc1', 'inhibition of growth at 1 µM', 99.7),
  ('O=C1C=C2C(C#Cc3ccc(F)cc3)=C[C@@H]3C[C@@]2(O1)[C@H]1CCCCN31', 'inhibition of growth at 1 µM', 87.3),
  ('O=C1C=C2C(c3ccc(Br)cc3)=C[C@@H]3C[C@@]2(O1)[C@H]1CCCCN31', 'inhibition of growth at 1 µM', -5.2),
  ('CN(C)c1ccc(C2=C[C@@H]3C[C@@]4(OC(=O)C=C24)[C@H]2CCCCN32)cc1', 'inhibition of growth at 1 µM', -1.4);

Okay, here is my list. What is inhibition of growth at 1 µM for each of these?
1. O=C1C=C2C(c3ccco3)=C[C@@H]3C[C@@]2(O1)[C@H]1CCCCN31
2. O=C1C=C2C(C#Cc3cccnc3)=C[C@@H]3C[C@@]2(O1)[C@H]1CCCCN31
3. O=C1C=C2C(C#CCO)=C[C@@H]3C[C@@]2(O1)[C@H]1CCCCN31
4. CC(C)(C)OC(=O)NCC#CC1=C[C@@H]2C[C@@]3(OC(=O)C=C13)[C@H]1CCCCN21
5. CCCCC#CC1=C[C@@H]2C[C@@]3(OC(=O)C=C13)[C@H]1CCCCN21

1. 6
2. 96.4
3. 5
4. 79.3
5. 7.6

Give me inhibition of growth at 1 µM for each of these compounds, listed below.
1. Cc1ccc(C#CC2=C[C@@H]3C[C@@]4(OC(=O)C=C24)[C@H]2CCCCN32)cc1
2. COC(=O)c1ccc(C2=C[C@@H]3C[C@@]4(OC(=O)C=C24)[C@H]2CCCCN32)cc1

64
-3.6

Looking for the measured inhibition of growth at 1 µM of Cc1ccc(C2=C[C@@H]3C[C@@]4(OC(=O)C=C24)[C@H]2CCCCN32)cc1 , can you help?
0.3

The reported measurements were obtained from ChEMBL document CHEMBL3813637.
